Measured MIC, listed per entry for reference.
Tested on: Mycolicibacterium smegmatis
assay.summary: Antimycobacterial activity against Mycobacterium smegmatis DSM 43465 after 120 hr by resazurin dye based microdilution method
Format: functional
reported.conditions: DSM 43465, 120 h

O=C(NCCc1ccccc1)Oc1ccc(Cl)cc1C(=O)Nc1ccc(Cl)cc1 :: 1.56 µg/mL

For the molecule O=C(NC12CC3CC(CC(C3)C1)C2)Oc1ccc(Cl)cc1 , give its measured MIC value.
≥ 125 µg/mL

For the molecule O=C(NCCc1ccccc1)Oc1ccc(Cl)cc1C(=O)Nc1ccc(Br)cc1 , give its measured MIC value.
3.12 µg/mL

For the molecule O=C(NC12CC3CC(CC(C3)C1)C2)Oc1ccc(Cl)cc1C(=O)Nc1ccc(Br)cc1 , give its measured MIC value.
3.12 µg/mL

For the molecule O=C(NC12CC3CC(CC(C3)C1)C2)Oc1ccc(Cl)cc1C(=O)Nc1ccc(F)cc1 , give its measured MIC value.
1.98 µg/mL

====

Measured log10 of MIC, listed per entry for reference.
Test system: Mycolicibacterium smegmatis
assay.summary: Antimycobacterial activity against Mycobacterium smegmatis DSM 43465 after 120 hr by resazurin dye based microdilution method
Format: functional
reported.conditions: DSM 43465, 120 h
Would you kindly interpret these values as log10 of MIC expressed in µg/mL?

A selection of reference data follows.
O=C(NCc1ccccc1)Oc1ccc(Cl)cc1C(=O)Nc1ccc(F)cc1 :: 0.49
O=C(NCc1ccccc1)Oc1ccc(Cl)cc1C(=O)Nc1ccc(Br)cc1 :: 0.30
O=C(NCc1ccccc1)Oc1ccccc1C(=O)Nc1ccccc1 :: 1.49
O=C(NCCc1ccccc1)Oc1ccc(Cl)cc1C(=O)Nc1ccc(F)cc1 :: 0.49
O=C(Nc1ccccc1)Oc1ccc(Cl)cc1C(=O)Nc1ccc(Cl)cc1 :: 0.19

Identify measured log10 of MIC obtained with Mycolicibacterium smegmatis for O=C(Nc1ccccc1)Oc1ccc(Cl)cc1 .
1.19

Identify measured log10 of MIC obtained with Mycolicibacterium smegmatis for O=C(NC1CCCCC1)Oc1ccccc1C(=O)Nc1ccccc1 .
1.19

====

Test system: HepG2
assay.summary: Cytotoxicity against human HepG2 cells assessed as reduction in cell viability after overnight incubation by MTT assay
Assay type: cell-based
Measured IC50, listed per entry for reference.

O=C(Nc1ccccc1)Oc1ccc(Cl)cc1C(=O)Nc1ccc(Cl)cc1 :: > 250 µM
O=C(NCc1ccccc1)Oc1ccc(Cl)cc1C(=O)Nc1ccc(Cl)cc1 :: > 250 µM
O=C(NCCc1ccccc1)Oc1ccc(Cl)cc1C(=O)Nc1ccc(C(F)(F)F)cc1 :: > 125 µM
O=C(Nc1ccccc1)Oc1ccc(Cl)cc1 :: > 125 µM
O=C(Nc1ccccc1)Oc1ccc(Cl)cc1C(=O)Nc1ccc(F)cc1 :: > 20 µM

For the compound O=C(NCc1ccccc1)Oc1ccc(Cl)cc1 , give its measured IC50 value.
> 125 µM

For the compound O=C(NC1CCCCC1)Oc1ccc(Cl)cc1C(=O)Nc1ccc(F)cc1 , give its measured IC50 value.
21.2 µM

For the compound O=C(NC1CCCCC1)Oc1ccc(Cl)cc1C(=O)Nc1ccc(Cl)cc1 , give its measured IC50 value.
> 250 µM

For the compound O=C(NC12CC3CC(CC(C3)C1)C2)Oc1ccc(Cl)cc1C(=O)Nc1ccc(C(F)(F)F)cc1 , give its measured IC50 value.
> 125 µM

====

Measured MIC, listed per entry for reference.
Test system: Mycobacterium tuberculosis
assay.summary: Antimycobacterial activity against Mycobacterium tuberculosis H37Ra ITM-M006710 after 48 hr by resazurin dye based microdilution method
Format: functional
reported.conditions: H37Ra ITM-M006710, 48 h
Express your answer in µM, writing the number without its unit.

A selection of reference data follows.
O=C(NCCc1ccccc1)Oc1ccc(Cl)cc1C(=O)Nc1ccc(Br)cc1 :: 1.65
O=C(NC12CC3CC(CC(C3)C1)C2)Oc1ccc(Cl)cc1C(=O)Nc1ccc(F)cc1 :: 2.24
CC[C@@H](CO)NCCN[C@@H](CC)CO :: 1.8

For the molecule O=C(NC12CC3CC(CC(C3)C1)C2)Oc1ccc(Cl)cc1C(=O)Nc1ccc(C(F)(F)F)cc1 , give its measured MIC value.
2

====

Tested on: Mycobacterium kansasii
assay.summary: Antimycobacterial activity against Mycobacterium kansasii 235/80 after 7 days
Type: functional
reported.conditions: 235/80, 168 h
experimental.endpoint: log10 MIC (log10 of the value in µM)
Would you kindly interpret these values as log10 of MIC expressed in µM?

A selection of reference data follows.
Nc1ccc(C(=O)O)c(O)c1 [AMINOSALICYLIC ACID] :: 2.10
O=C(NC1CCCCC1)Oc1ccc(Cl)cc1C(=O)Nc1ccc(C(F)(F)F)cc1 :: 0.60
O=C(Nc1ccccc1)Oc1ccc(Cl)cc1 :: 2.10
O=C(NC12CC3CC(CC(C3)C1)C2)Oc1ccc(Cl)cc1C(=O)Nc1ccc(Cl)cc1 :: 0.90

Pending compound:
For the compound O=C(NCc1ccccc1)Oc1ccc(Cl)cc1C(=O)Nc1ccc(Cl)cc1 , give its measured log10 MIC value.
0.90

====

assay.summary: in vitro
reported.conditions: human, HepG2 cells
Description: Selectivity index, ratio of IC50 for human HepG2 cells to MIC for antimycobacterial activity against Mycobacterium tuberculosis H37Rv
experimental.endpoint: selectivity ratio

A selection of reference data follows.
O=C(NC1CCCCC1)Oc1ccc(Cl)cc1C(=O)Nc1ccc(Br)cc1 :: > 6.3
O=C(NC12CC3CC(CC(C3)C1)C2)Oc1ccc(Cl)cc1C(=O)Nc1ccc(C(F)(F)F)cc1 :: > 125
O=C(Nc1ccccc1)Oc1ccc(Cl)cc1C(=O)Nc1ccc(Cl)cc1 :: > 15.6
O=C(NCCc1ccccc1)Oc1ccc(Cl)cc1 :: > 0.5
O=C(NC1CCCCC1)Oc1ccccc1C(=O)Nc1ccccc1 :: 0.4

For the compound O=C(NC12CC3CC(CC(C3)C1)C2)Oc1ccccc1C(=O)Nc1ccccc1 , give its measured selectivity ratio value.
> 2

For the compound O=C(NC1CCCCC1)Oc1ccc(Cl)cc1C(=O)Nc1ccc(Cl)cc1 , give its measured selectivity ratio value.
> 15.6

For the compound O=C(NCc1ccccc1)Oc1ccc(Cl)cc1 , give its measured selectivity ratio value.
> 0.5

For the compound O=C(NC12CC3CC(CC(C3)C1)C2)Oc1ccc(Cl)cc1 , give its measured selectivity ratio value.
> 1

====

Measured log10(MIC), listed per entry for reference.
Tested on: Mycobacterium tuberculosis
Type: functional
reported.conditions: H37Rv 331/88, 504 h
Would you kindly interpret these values as log10 of MIC expressed in µM?

O=C(NC1CCCCC1)Oc1ccc(Cl)cc1C(=O)Nc1ccc(F)cc1 :: 0.90
O=C(NCc1ccccc1)Oc1ccc(Cl)cc1 :: 2.40

For the compound O=C(Nc1ccccc1)Oc1ccc(Cl)cc1 , give its measured log10(MIC) value.
2.70

For the compound O=C(NC12CC3CC(CC(C3)C1)C2)Oc1ccc(Cl)cc1C(=O)Nc1ccc(C(F)(F)F)cc1 , give its measured log10(MIC) value.
0.00

For the compound O=C(NCc1ccccc1)Oc1ccc(Cl)cc1C(=O)Nc1ccc(C(F)(F)F)cc1 , give its measured log10(MIC) value.
0.60

====

assay.summary: in vitro
reported.conditions: human, HepG2 cells
Measured selectivity ratio, listed per entry for reference.

A selection of reference data follows.
O=C(NCCc1ccccc1)Oc1ccc(Cl)cc1C(=O)Nc1ccc(Cl)cc1 :: 1.9
O=C(NCCc1ccccc1)Oc1ccccc1C(=O)Nc1ccccc1 :: > 1
NNC(=O)c1ccncc1 :: > 250
O=C(NC12CC3CC(CC(C3)C1)C2)Oc1ccc(Cl)cc1C(=O)Nc1ccc(Br)cc1 :: 0.5
O=C(NCc1ccccc1)Oc1ccc(Cl)cc1C(=O)Nc1ccc(F)cc1 :: > 7.8
O=C(NCc1ccccc1)Oc1ccc(Cl)cc1C(=O)Nc1ccc(Cl)cc1 :: > 15.6
O=C(Nc1ccccc1)Oc1ccc(Cl)cc1C(=O)Nc1ccc(Br)cc1 :: > 6.3
O=C(NC1CCCCC1)Oc1ccc(Cl)cc1C(=O)Nc1ccc(C(F)(F)F)cc1 :: > 125

For the compound O=C(NCCc1ccccc1)Oc1ccc(Cl)cc1C(=O)Nc1ccc(C(F)(F)F)cc1 , give its measured selectivity ratio value.
> 125

For the compound O=C(NCc1ccccc1)Oc1ccc(Cl)cc1C(=O)Nc1ccc(C(F)(F)F)cc1 , give its measured selectivity ratio value.
> 31.3

For the compound O=C(Nc1ccccc1)Oc1ccc(Cl)cc1C(=O)Nc1ccc(F)cc1 , give its measured selectivity ratio value.
> 2.5

For the compound O=C(NC12CC3CC(CC(C3)C1)C2)Oc1ccc(Cl)cc1C(=O)Nc1ccc(Cl)cc1 , give its measured selectivity ratio value.
1.5

For the compound O=C(NC12CC3CC(CC(C3)C1)C2)Oc1ccc(Cl)cc1C(=O)Nc1ccc(F)cc1 , give its measured selectivity ratio value.
31.3

For the compound Nc1ccc(C(=O)O)c(O)c1 , give its measured selectivity ratio value.
35.8

For the compound O=C(NCCc1ccccc1)Oc1ccc(Cl)cc1C(=O)Nc1ccc(F)cc1 , give its measured selectivity ratio value.
10.4
